pKd listing for selected binders.
# target_desc: T1, soluble EpoR (EposR) (human, UniProt P19235 25-250, limits assumed)
# T1 construct: also called soluble recombinant human EpoR
# T1 sequence (looked up): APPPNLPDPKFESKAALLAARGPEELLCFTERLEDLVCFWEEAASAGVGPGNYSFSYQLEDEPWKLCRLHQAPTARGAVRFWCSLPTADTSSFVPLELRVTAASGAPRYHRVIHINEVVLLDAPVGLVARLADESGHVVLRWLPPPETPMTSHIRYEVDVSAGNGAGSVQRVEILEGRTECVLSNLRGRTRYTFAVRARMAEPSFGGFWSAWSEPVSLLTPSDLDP
# protocol_description: SPR (BIAcore), IgG2/K antibody, EposR as test antigen
// field semantics: pKd = negative decimal log of concentration (mol/L)

Completed entries (count: 2):
binder="Ab12.6 (antibody, V domains shown, CDRH2 Y Y S is changed to G G E against Ab12; also called H2-1-3 R2 #6) VH: QVQLQESGPGLVKPSETLSLTCTVSGASISSYYWSWIRQPPGKGLEWIGYIGGEGSTNYNPSLKSRVTISVDTSKNQFSLKLRSVTAADTAVYYCARERLGIGDYWGQGTLVTVSS VL: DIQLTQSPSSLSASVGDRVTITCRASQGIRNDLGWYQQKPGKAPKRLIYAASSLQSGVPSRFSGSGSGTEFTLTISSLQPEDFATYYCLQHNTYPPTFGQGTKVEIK" value_kind=pKd value_observed=7.49
binder="Ab12.56 (antibody, V domains shown, CDRH2 Y Y S is changed to A G T against Ab12) VH: QVQLQESGPGLVKPSETLSLTCTVSGASISSYYWSWIRQPPGKGLEWIGYIAGTGSTNYNPSLKSRVTISVDTSKNQFSLKLRSVTAADTAVYYCARERLGIGDYWGQGTLVTVSS VL: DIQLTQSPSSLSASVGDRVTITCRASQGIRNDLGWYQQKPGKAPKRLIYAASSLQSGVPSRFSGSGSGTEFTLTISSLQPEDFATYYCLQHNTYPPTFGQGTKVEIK" value_kind=pKd value_observed=7.70

Task: Give me measured pKd, please, for this binder: Ab12.70 (antibody, V domains shown, also called H2-4-1 R2 #8,9) VH: QVQLQESGPGLVKPSETLSLTCTVSGASISSYYWSWIRQPPGKGLEWIGYIYSPSSTNYNPSLKSRVTISVDTSKNQFSLKLRSVTAADTAVYYCARERLGIGDYWGQGTLVTVSS VL: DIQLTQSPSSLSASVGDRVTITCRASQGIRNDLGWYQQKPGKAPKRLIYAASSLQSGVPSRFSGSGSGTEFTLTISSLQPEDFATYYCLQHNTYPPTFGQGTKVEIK
Result: 8.22

Task: Give me measured pKd, please, for this binder: Ab12 IgG2/K (antibody, V domains shown, Human IgG2/kappa) VH: QVQLQESGPGLVKPSETLSLTCTVSGASISSYYWSWIRQPPGKGLEWIGYIYYSGSTNYNPSLKSRVTISVDTSKNQFSLKLRSVTAADTAVYYCARERLGIGDYWGQGTLVTVSS VL: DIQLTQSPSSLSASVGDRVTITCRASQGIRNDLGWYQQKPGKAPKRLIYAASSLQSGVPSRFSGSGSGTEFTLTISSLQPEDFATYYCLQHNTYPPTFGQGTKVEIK
Result: 7.96

Provenance of the data: patent US20060018902A1
